Cited source: patent US9453028B2

System: Human primary T cell
assay-text: IL-2 ELISA, human primary T cell, anti-CD3+CD28+ whole cell assay
Type: cell-based
recorded-conditions: T-cell; IL-2 by ELISA, human primary T cells stimulated with anti-CD3+CD28
measurement-label: IC50

[
  {
    "compound": "CC1(C)CC(Nc2nc(Nc3ccc4c(c3)-n3nnnc3C(C)(C)O4)ncc2F)CC(C)(C)N1",
    "target": "Human primary T cell",
    "measurement-label": "IC50",
    "assay-result": "< 0.25 µM"
  },
  {
    "compound": "CC1(C)CC(Nc2nc(Nc3ccc4c(c3)-c3nnnn3C(C)(C)O4)ncc2F)CC(C)(C)N1",
    "target": "Human primary T cell",
    "measurement-label": "IC50",
    "assay-result": "0.5 to 1 µM"
  },
  {
    "compound": "CC1(C)CC(Nc2nc(Nc3ccc4c(c3)-n3nnnc3CO4)ncc2F)CC(C)(C)N1",
    "target": "Human primary T cell",
    "measurement-label": "IC50",
    "assay-result": "< 0.25 µM"
  },
  {
    "compound": "CN1C(C)(C)CC(Nc2nc(Nc3ccc4c(c3)-n3nnnc3CO4)ncc2F)CC1(C)C",
    "target": "Human primary T cell",
    "measurement-label": "IC50",
    "assay-result": "< 0.25 µM"
  },
  {
    "compound": "CC1(C)CC(Nc2nc(Nc3ccc4c(c3)-n3nnnc3C(F)(F)O4)ncc2F)CC(C)(C)N1",
    "target": "Human primary T cell",
    "measurement-label": "IC50",
    "assay-result": "0.5 to 1 µM"
  },
  {
    "compound": "CN1C(C)(C)CC(Nc2nc(Nc3ccc4c(c3)-n3nnnc3C(C)(C)O4)ncc2F)CC1(C)C",
    "target": "Human primary T cell",
    "measurement-label": "IC50",
    "assay-result": "< 0.25 µM"
  }
]

With those in mind, consider the next compound.
Per the records, this compound ( CC1Oc2ccc(Nc3ncc(F)c(NC4CC(C)(C)NC(C)(C)C4)n3)cc2-n2nnnc21 (stereo not shown) ) has IC50 equal to < 0.25 µM
